Quick list: inhibition per entry.
Biological target: Glucose transporter (Leishmania mexicana) (UniProt O61059)
Assay: ST_JUDE_LEISH: Cytotoxicity at 2uM final concentration against transgenic Leishmania Mexicana promastigotes LmGT2 that are glucose transport deficient and complemented with the L. Mexicana glucose transporter 2. Activity is measured by DNA content using SYBR green in vitro
Type: functional

# compound, experimental_system, units_label, inhibition
measured = [
    ("O=C(C=Cc1ccc(Cl)c(Cl)c1)NCCCCCN1CCC(CCCNS(=O)(=O)c2ccc(F)cc2)CC1", "Glucose transporter (Leishmania mexicana) (UniProt O61059)", "%", -0.43),
    ("COc1ccccc1NC(=O)OC(COc1ccc(N)cc1)CN1CC=C(c2ccccc2)CC1 (stereo not given)", "Glucose transporter (Leishmania mexicana) (UniProt O61059)", "%", 0.98),
    ("CC(C)(C)SC1SC(SC(C)(C)C)C(OC(=O)c2ccccc2)C(OC(=O)c2ccccc2)C1OC(=O)c1ccccc1 (stereo not given)", "Glucose transporter (Leishmania mexicana) (UniProt O61059)", "%", -0.49),
    ("COc1ccc2c(OC)c(CNCCCCCCNCc3ccc4cc(OC)ccc4c3OC)ccc2c1", "Glucose transporter (Leishmania mexicana) (UniProt O61059)", "%", 107),
    ("COc1cccc(CCNc2nc(NCc3ccccc3)c3cc(OC)c(OC)cc3n2)c1", "Glucose transporter (Leishmania mexicana) (UniProt O61059)", "%", 1.86),
    ("Cc1cc(N(CCN2CCCCC2)CCN2CCCCC2)nc(Nc2ccc(Cl)cc2)n1", "Glucose transporter (Leishmania mexicana) (UniProt O61059)", "%", 2.83),
    ("c1ccc(CNCc2cccc(-c3csc(-c4nc5ccccc5[nH]4)c3)c2)cc1", "Glucose transporter (Leishmania mexicana) (UniProt O61059)", "%", 3.11),
    ("Nc1nccc(-c2ccc3c(/C=C/c4ccccc4)cnc(N)c3c2)n1", "Glucose transporter (Leishmania mexicana) (UniProt O61059)", "%", 0.5),
    ("N=C(N)NCC=C(c1ccccc1)c1ccccc1", "Glucose transporter (Leishmania mexicana) (UniProt O61059)", "%", 6.35),
    ("CN(C)Cc1ccc(-c2cc3c(Nc4ccc(OCc5cccc(F)c5)c(Cl)c4)ncnc3s2)[nH]1", "Glucose transporter (Leishmania mexicana) (UniProt O61059)", "%", 2.33),
    ("Cc1cccc2nc(-c3ccc(-c4cccc(NC(=O)C(C)CN5CCN(C)CC5)c4)s3)[nH]c12 (stereo not given)", "Glucose transporter (Leishmania mexicana) (UniProt O61059)", "%", 10.3),
    ("CSc1cccc(NC(=O)Nc2ccc(I)c(OCCN(C)C)c2)c1", "Glucose transporter (Leishmania mexicana) (UniProt O61059)", "%", 3.56),
    ("Cc1cc(N[C@@H](Cc2ccccc2)C(=O)NC2CCCC2)nc(NCCCOC(C)C)n1", "Glucose transporter (Leishmania mexicana) (UniProt O61059)", "%", 0.61),
    ("CN1CCC(NCc2ccc(-c3ccc(S(=O)(=O)NCc4ccccc4)c(F)c3)cc2)CC1", "Glucose transporter (Leishmania mexicana) (UniProt O61059)", "%", 7.68),
    ("O=C(Nc1cn(-c2ccc(OCc3cccc(F)c3)c(Cl)c2)c2ncncc12)c1ccncc1", "Glucose transporter (Leishmania mexicana) (UniProt O61059)", "%", 2.96),
    ("CN1CCN(c2ccnc3ccc(NC(=O)Nc4ccc(-c5ccncc5)c(C(F)(F)F)c4)cc23)CC1", "Glucose transporter (Leishmania mexicana) (UniProt O61059)", "%", 10.6),
    ("COc1cc2nc(NCC3CCN(c4nc(N)c5cc(OC)c(OC)cc5n4)CC3)nc(N)c2cc1OC", "Glucose transporter (Leishmania mexicana) (UniProt O61059)", "%", 3.28),
    ("CCCCN1CCCC[C@H]1[C@@H](O)c1ccnc2ccc(OCC)cc12", "Glucose transporter (Leishmania mexicana) (UniProt O61059)", "%", 3.68),
    ("Cc1ccc(Nc2nc(N/N=C/c3ccccc3[N+](=O)[O-])nc(Nc3ccc([N+](=O)[O-])cc3)n2)cc1C", "Glucose transporter (Leishmania mexicana) (UniProt O61059)", "%", 5.3),
    ("Cc1ccccc1C1CCN(c2ncc(C(=O)Nc3ccccc3)cc2Cl)CC1", "Glucose transporter (Leishmania mexicana) (UniProt O61059)", "%", -6.29),
]

* * *

Target: Solute carrier family 2, facilitated glucose transporter member 1 (Homo sapiens) (UniProt P11166)
Sequence (P11166 whole entry): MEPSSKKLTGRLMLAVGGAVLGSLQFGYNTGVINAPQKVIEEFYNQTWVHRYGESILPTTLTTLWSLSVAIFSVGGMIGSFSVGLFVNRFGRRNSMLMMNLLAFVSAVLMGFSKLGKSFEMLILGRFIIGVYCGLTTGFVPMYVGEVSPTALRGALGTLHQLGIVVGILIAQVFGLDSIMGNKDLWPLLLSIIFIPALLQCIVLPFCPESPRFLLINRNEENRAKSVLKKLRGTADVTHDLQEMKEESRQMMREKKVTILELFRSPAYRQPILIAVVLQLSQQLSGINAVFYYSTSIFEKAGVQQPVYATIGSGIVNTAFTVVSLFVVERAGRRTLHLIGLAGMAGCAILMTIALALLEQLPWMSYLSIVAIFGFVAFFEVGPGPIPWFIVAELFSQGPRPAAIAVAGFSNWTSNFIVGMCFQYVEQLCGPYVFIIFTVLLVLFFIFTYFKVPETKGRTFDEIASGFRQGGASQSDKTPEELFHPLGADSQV
Assay: ST_JUDE_LEISH: Cytotoxicity at 2uM final concentration against transgenic Leishmania Mexicana promastigotes LmGLUT1 that are glucose transport deficient and complemented with the human glucose transporter GLUT1. Activity is measured by DNA content using SYBR green in vitro
Type: functional

# compound, units_label, inhibition
records = [
    ("Cc1cccc2nc(-c3cccc(-c4cccc(NC(=O)c5ccoc5)c4)c3)[nH]c12", "%", 5.99),
    ("CC(C)C1=NC(=O)c2cc([N+](=O)[O-])ccc2CN1", "%", 1.78),
    ("FC(F)(F)c1ccc2[nH]c(-c3ccc(-c4cccc(CNCc5cnn(-c6ccccc6)n5)c4)s3)nc2c1", "%", 2.87),
    ("Cc1ccc(CNC(=O)[C@H](CCCN)Nc2nc(NCC3CCCCC3)ncc2C)cc1", "%", 3.55),
    ("COc1ccc2nccc([C@@H](O)CN3CCC(NC(=O)/C(=C/c4ccccc4)c4ccc(-c5ccccc5)cc4)CC3)c2c1", "%", 1.6),
    ("CCN1CCc2c1cc(C(=O)N[C@@H](Cc1ccccc1)[C@H](O)CNC(C)(C)c1cccc(C(F)(F)F)c1)cc2N1CCCCS1(=O)=O", "%", 5.34),
    ("CCOC(=O)c1ccc(NC(=O)Nc2cccc(-c3ccc(-c4nc5cc(F)ccc5[nH]4)cc3)c2)cc1", "%", 2.21),
    ("Cc1cccc(C(=O)Nc2ccnc(N(C)CCCN(C)Cc3cccc(C#N)c3)c2)c1", "%", 5.76),
    ("CC(C)COc1ccc(Cl)cc1Cc1ccc(-c2nc3ccc(F)cc3[nH]2)o1", "%", 1.83),
    ("Cc1cc2c(cc1C(F)(F)F)N(C(=O)Nc1cnc(OCCN(C)C)c(C(F)(F)F)c1)CC2", "%", 7.92),
    ("CCNc1cc(C(=O)N[C@@H](Cc2ccccc2)[C@H](O)CNC(C)CCCC(C)C)cc(N2CCCS2(=O)=O)c1 (stereo partly drawn)", "%", 2.83),
    ("CCOC(=O)c1ccc(NC(=O)N(Cc2ccc(-c3ccc(CN4CCNCC4)cc3)cc2)Cc2cccnc2)cc1", "%", 2.01),
    ("CCNC(=O)c1ccc2c(c1)c(C)c(C)n2Cc1ccc(F)cc1", "%", 0.6),
    ("CCc1sc(N2CCN(C)CC2)nc1C(=O)NCCc1ccc(Cl)c(Cl)c1", "%", 4.62),
    ("CCNc1cc(C(=O)N[C@@H](Cc2ccccc2)[C@H](O)CNC(CC)c2cccc(Cl)c2)cc(N2CCCCS2(=O)=O)c1 (stereo partly drawn)", "%", 4.81),
    ("Oc1ccc(-c2cncc(NCc3ccc(F)c(F)c3)c2)cc1", "%", 7.16),
    ("CC(C)(C)OC(=O)N1CCC(C2CCN(C(=O)OC(C)(C)C)CC2)CC1", "%", -2.91),
    ("O=C1CCCN1CCCNCc1cccc(-c2cccc(-c3nc4cc(C(F)(F)F)ccc4[nH]3)c2)c1", "%", 4.47),
]

* * *

Biological target: Solute carrier family 2, facilitated glucose transporter member 1 (Homo sapiens) (UniProt P11166)
Assay: ST_JUDE_LEISH: Cytotoxicity at 2uM final concentration against transgenic Leishmania Mexicana promastigotes LmGLUT1 that are glucose transport deficient and complemented with the human glucose transporter GLUT1. Activity is measured by DNA content using SYBR green in vitro
Format: functional

# compound, inhibition (%)
records = [
    ("CC(C)CNCc1ccc(-c2cccc(CNc3ccc4ncccc4c3)c2)cc1", 4.79),
    ("C=CCc1cc(OC)ccc1OCCCOc1c(C)nc(N)nc1N", 78.2),
    ("O=C(Nc1ccc(Cl)cc1)c1ccc(CN2CCCN(Cc3cccc(O)c3)CC2)cc1", 1.65),
    ("CNCc1ccc(CN(C)c2nc(N)c3cc(OC)c(OC)cc3n2)cc1", 4.8),
    ("Nc1nc(NCC2CCC(CNS(=O)(=O)c3cccc4ccccc34)CC2)nc2ccccc12 (stereo not given)", 7.11),
]

* * *

Biological target: Glucose transporter (Leishmania mexicana) (UniProt O61059)
Assay: ST_JUDE_LEISH: Cytotoxicity at 2uM final concentration against transgenic Leishmania Mexicana promastigotes LmGT2 that are glucose transport deficient and complemented with the L. Mexicana glucose transporter 2. Activity is measured by DNA content using SYBR green in vitro
Format: functional

# compound, inhibition (%)
data = [
    ("O=C(/C=C/c1ccc(C(F)(F)F)cc1)NCCCCCN1CCN(C(=O)Nc2ccc(Cl)c(Cl)c2)CC1", -0.42),
    ("O=C(CCCCCNC(=O)c1ccc(O)c(-c2ccc(Cl)c(Cl)c2)c1)NCCN1CCOCC1", 2.65),
    ("COc1ccccc1CN1CCC(CNC(=O)c2cc(-c3cccc(C(F)(F)F)c3)cs2)C1 (stereo unspecified)", 1.94),
    ("CCCCCN1CCCC1CNS(=O)(=O)c1ccc(C(=O)Nc2ccc(C(F)(F)F)cc2)cc1 (stereo unspecified)", 1.09),
    ("Cc1cccc2nc(-c3ccc(-c4cccc(NC(=O)Cc5c[nH]cn5)c4)cc3)[nH]c12", -1.21),
    ("FC(F)(F)c1ccc(N2CCCN(Cc3cccc(-c4ccccc4CNCc4ccc5c(c4)OCO5)c3)CC2)nc1", -0.04),
    ("COc1ccc(S(=O)(=O)N2CCCC(C)C2)cc1N1CCN(C(=O)c2ccc([N+](=O)[O-])o2)CC1 (stereo unspecified)", 0.09),
    ("CC(=O)Nc1ccc(CN2CCC(NC(=O)c3ccc(-c4cccc(OC(C)C)c4)s3)CC2)cc1", 7.43),
    ("CCC(O)c1ccc(Br)cc1NC(=O)c1cccc(Cl)c1 (stereo unspecified)", -0.55),
    ("COc1ccccc1CCCON1C(=N)N=C(N)NC1(C)C", 4.51),
    ("O=C(N[C@H]1CCN(Cc2ccc(OCCN3CCNCC3)c(Cl)c2)C1)c1ccc(Cl)c(Cl)c1", -2.23),
    ("CC(CN(C)C)C(=O)Nc1ccc(-c2ccc(-c3nc4ccccc4[nH]3)cc2)cc1 (stereo unspecified)", 5.36),
    ("Cc1ccc(-c2cc(C(=O)Nc3ccc(S(=O)(=O)N4CCCCC4C)cc3)n[nH]2)c(O)c1 (stereo unspecified)", -0.79),
    ("O=c1cc(NCCCNCc2ccc(Cl)c(Cl)c2)[nH]c2ccc(Oc3ccccc3)cc12", -0.72),
    ("CCOc1cc(C)c(C2CCN(CCCCNC(=O)c3ccc(NC(=O)c4ccc(Cl)cc4)cc3)CC2)cc1C", -0.67),
    ("CCOc1cc(C)ccc1C1CCN(CCCCNC(=O)c2cnc(-c3ccc(C(F)(F)F)cc3)[nH]2)CC1", -0.53),
    ("CC[C@H]1CN(Cc2ccccc2Br)CC[C@H]1CCCc1ccnc2ccc(O)cc12", 2.43),
    ("Cc1cc(-c2cccc3c(C(=O)N4CCc5cc6nccc(N7CCCN(C)CC7)c6cc54)cccc23)cc(C)n1", 1.14),
    ("Cc1ccc(C(=O)NC2C(=O)NC2c2ccccc2)c(C)c1 (stereo unspecified)", 2.37),
    ("N#Cc1ccc2c(c1)CCN(CCC1CCC(NC(=O)c3ccc(-c4ccccn4)s3)CC1)CC2 (stereo unspecified)", 9.9),
    ("O=S(=O)(Nc1ccc(CCN2CCC(N3CCCCC3)CC2)cc1)c1ccccc1C(F)(F)F", 11.3),
    ("O=C(Nc1ccc2c(c1)CCC2)N[C@H]1CCN(CCCCCNC(=O)C2CC2c2ccc(Cl)c(Cl)c2)C1 (stereo partly specified)", -0.01),
    ("c1cc(-c2ccc(CNCCc3ccncc3)cc2)cc(-c2nc3ccccc3[nH]2)c1", 3.55),
    ("CCN1CCC(N(Cc2ccc(-c3ccc(C(F)(F)F)cc3)cc2)C(=O)Cn2c(CCc3cccc(F)c3F)cc(=O)c3cn(C)nc32)CC1", 0.21),
    ("Cc1nc(-c2ccc(C(F)(F)F)cn2)sc1C(=O)N1CCc2cc3nccc(N4CCN5CCC[C@H]5C4)c3cc21", 0.8),
    ("C=CC[C@H](C[C@H](O)[C@H](Cc1ccccc1)NC(=O)c1nn(-c2ccccc2)nc1C)C(=O)NC1CCCCC1", 2.36),
    ("CC1Cc2ccccc2N1S(=O)(=O)c1cccc(C(=O)Nc2nc(-c3ccccn3)cs2)c1 (stereo unspecified)", 5.62),
    ("N=C(N)Nc1nc(-c2cc(NC(=O)C(F)(F)F)cc([N+](=O)[O-])c2)cs1", 1),
    ("Cc1ccc(CNc2ccc3ncc(-c4cccc(C(=O)NCCN(C)C)c4)n3n2)c(C)c1", 4.49),
    ("C=C1C(C(=O)OCC)=CN(CC)c2cc(O[C@@H]3CCN(C(=O)OC(C)(C)C)C3)ccc21", 6.99),
    ("O=C(Nc1ccc(-c2ccccc2)cc1)Nc1cccc(Cn2nc(Cl)c(N3CCNCC3)cc2=O)c1", 4.62),
    ("Cc1cc(C)c2nc(N3CCC(C(=O)NCCCN4CCC(N5CCCCC5)CC4)CC3)sc2c1", 0.65),
    ("COc1ccc(CNCC(C)(C)c2nc(-c3ccc(Cl)c(O)c3)c(-c3ccncc3)[nH]2)cc1", -2.74),
    ("Cc1cc(N2CCN(C)CC2)nc2ccc(NC(=O)Cc3cccc(C(F)(F)F)c3)cc12", 5.56),
    ("Cc1nc2ccccc2c(=O)n1/N=C/c1ccccc1[N+](=O)[O-]", 2.65),
    ("COc1ccc(CNC2CCN(C)CC2)cc1-c1ccc(S(=O)(=O)NC2CCC2)c(C)c1", -0.25),
]
